Consider the following binders; for each one, report its Etop pY588.
- TARGET: EphA2 endogenously expressed on PC3 prostate cancer cells (UniProt P29317 24-976, limits assumed)
- Sequence (P29317 24-976 limits assumed): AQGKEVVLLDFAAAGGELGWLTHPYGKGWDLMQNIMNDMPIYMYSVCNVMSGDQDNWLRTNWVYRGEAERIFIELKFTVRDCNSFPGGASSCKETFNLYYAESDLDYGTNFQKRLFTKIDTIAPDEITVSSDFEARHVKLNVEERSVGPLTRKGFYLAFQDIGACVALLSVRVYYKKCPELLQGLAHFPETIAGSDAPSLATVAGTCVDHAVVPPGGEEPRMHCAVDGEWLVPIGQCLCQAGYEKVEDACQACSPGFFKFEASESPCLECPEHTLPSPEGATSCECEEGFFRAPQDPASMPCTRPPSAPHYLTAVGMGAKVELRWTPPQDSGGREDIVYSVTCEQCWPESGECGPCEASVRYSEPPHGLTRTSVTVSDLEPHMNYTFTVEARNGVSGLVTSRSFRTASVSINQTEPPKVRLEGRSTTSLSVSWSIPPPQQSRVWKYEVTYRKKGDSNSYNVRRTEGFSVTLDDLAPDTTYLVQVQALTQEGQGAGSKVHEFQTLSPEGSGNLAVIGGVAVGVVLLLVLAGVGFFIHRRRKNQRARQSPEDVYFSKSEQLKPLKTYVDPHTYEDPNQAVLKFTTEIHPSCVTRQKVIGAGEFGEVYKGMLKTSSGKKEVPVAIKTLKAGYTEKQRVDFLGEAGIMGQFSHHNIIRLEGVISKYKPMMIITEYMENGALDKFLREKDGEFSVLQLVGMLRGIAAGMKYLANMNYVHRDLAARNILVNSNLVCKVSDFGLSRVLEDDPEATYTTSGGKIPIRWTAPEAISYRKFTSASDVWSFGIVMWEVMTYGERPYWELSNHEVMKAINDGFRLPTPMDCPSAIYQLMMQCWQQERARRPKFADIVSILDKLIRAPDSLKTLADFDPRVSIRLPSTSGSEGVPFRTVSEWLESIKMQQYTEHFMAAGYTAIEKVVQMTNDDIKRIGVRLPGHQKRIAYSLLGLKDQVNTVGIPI
- ASSAY: cell-based or functional assay
Where no end group is shown, it is not given here. [ ]: non-standard residue; d: D form. The star is where a group is joined. Biotin = O=C1N[C@H]2[C@H](CS[C@H]2CCCCC(=O)*)N1; βAla = NCCC(=O)O; Cam = NC(=O)C*

[Q] Tell me measured Etop pY588 for Lys-linked dimer (C-ter) (also: bond at chain A 15 to a chain's C-terminus) peptide 1: [βAla]WLAYPDSVPYRPKK peptide 2: [βAla]WLAYPDSVPYRPK please.
[A] 0.46 normalized to ephrinA1-Fc

[Q] For [βAla]WLAYPDSVPYGSGC (also: homodimer, disulfide at 15, other end not in the chain, C-terminally disulfide-linked homodimer made from monomer (9*); also called dimer (1); dimeric peptide (1)) [βA-WLA-YGSGC dimer (C-ter)] , write its Etop pY588.
[A] 0.49 normalized to ephrinA1-Fc

[Q] Identify measured Etop pY588 corresponding to CGAWLAYPDSVPYRPK-NH2 (also: homodimer: N-terminal Cys of two chains joined by disulfide) [CGA-WLA-YRPKam dimer (N-ter)]
[A] 0.98 normalized to ephrinA1-Fc

[Q] Please indicate Etop pY588 recorded for C(Cam)GAWLAYPDSVPYRPK(Biotin) (also called monomer (10); monomeric peptide (10)) [CcamGA-WLA-YRPK-bio]
[A] 0.48 normalized to ephrinA1-Fc

[Q] Give reported Etop pY588 value for [βAla]WLAYPDSVPYRPKC (also: homodimer, disulfide at 15, other end not in the chain, C-terminally disulfide-linked homodimer made from monomer (19*); also called dimer (2); dimeric peptide (2)) [βA-WLA-YRPKC dimer (C-ter)]
[A] 0.5 normalized to ephrinA1-Fc
